# EXPERIMENTAL_SYSTEM: KRAS_WT and SOS1 (Homo sapiens)
# Sequence (P01116 1-188 isoform P01116-2): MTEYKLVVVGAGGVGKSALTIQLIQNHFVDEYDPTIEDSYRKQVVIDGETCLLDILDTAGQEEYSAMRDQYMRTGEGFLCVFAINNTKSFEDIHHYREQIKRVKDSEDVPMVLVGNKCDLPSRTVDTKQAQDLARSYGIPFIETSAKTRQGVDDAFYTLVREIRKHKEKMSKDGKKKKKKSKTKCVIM
Where a name gives a salt, the structure may show the parent alone.
IC50 by entry:

COMPOUND: CCc1cccc2cc(O)cc(-c3c(F)cc4c(N5CC6CCC(C5)N6)nc(OC[C@@]56CCCN5C[C@H](F)C6)nc4c3F)c12 (single isomer, unassigned) [Compound 285a, dihydrochloride]
IC50: 0.0184 µM

COMPOUND: CCc1cccc2cccc(-c3c(F)cc4c(N5CC6CCC(C5)N6)nc(OC[C@@]56CCCN5C[C@H](F)C6)nc4c3F)c12 (single isomer, unassigned) [Compound 281a, dihydrochloride]
IC50: 0.564 µM

COMPOUND: CN(C)C1CN(c2nc(N3CC4(CCNCC4)C3)c3cc(Cl)c(-c4cc(O)cc5ccccc45)c(F)c3n2)C1 (single isomer, unassigned) [Compound 10a]
IC50: 10.3 µM

COMPOUND: CN(C)C1CCC(Oc2nc(N3CC4CCC(C3)N4)c3cc(Cl)c(-c4cc(O)cc5ccccc45)c(F)c3n2)C1 (single isomer, unassigned) [Compound 70b, dihydrochloride]
IC50: > 100 µM

COMPOUND: Oc1cc(-c2c(Cl)cc3c(N4CC5CCC(C4)N5)nc(OCCN4CCCC4)nc3c2F)c2ccccc2c1 (single isomer, unassigned) [Compound 116, dihydrochloride]
IC50: 3.38 µM
